Listing: cytotoxicity at 70.5 h of selected compounds
method: Human HepG2 cell viability assay in 384 well format
Format: toxicity, cell-based
Design: dose 125 nL, time 70.5 hour; concentration not given beside the values
recorded conditions: HepG2 cells, read-out: Inhibition
Reply numerically in %, unit not repeated.

Solved entries:
{"columns": ["compound", "scale unit", "number"],
 "data": [
  ["Cc1cccc(C(=O)N2CCCCC2c2nc(C)cs2)n1 (stereo not given)", "%", -12.3],
  ["CCc1cnc(N)nc1NCCCn1cc(Cl)cn1", "%", -5.81],
  ["Cn1ccc(C(=O)N2CCCC2c2cc(CO)[nH]n2)n1 (stereo not given)", "%", -2.72],
  ["N#Cc1cccnc1N1CCCN(C(=O)CCc2cccs2)CC1", "%", -4.16],
  ["CC(C)N(C)Cc1nnc2n1CCCN(c1cnccn1)C2", "%", -4.42],
  ["CN1CCOCC12CCN(Cc1nccs1)CC2", "%", 3.99],
  ["CC(C)(C)c1cnc(CNCC2CCCN2c2cccnn2)o1 (stereo not given)", "%", 18.8],
  ["Cc1cc(C)c2c(NCC3(O)CCCCC3)ncnc2n1", "%", -2.73],
  ["Cc1cc(NC(=O)c2ccccc2Br)n(C)n1", "%", 2.28]
]}

Prompt line: What does the record list as cytotoxicity at 70.5 h for CN1CCC(N2CCC(CN(Cc3ccncc3)C3CCC3)CC2)CC1 ?
Response line: -4.29
